- protocolDescription: NFkB reporter suppression in cystic fibrosis bronchial cells – cell-based, uHTS hits, panel, cytotoxicity readout, dose response (AID 624344)
- testConditions: CF bronchial epithelial cells, PAF-induced NFkB reporter inhibition; with PAF, mean of runs
pIC50: −log10 of the molar value.
Consider the following compounds and their measured pIC50 readings.
measuredMetric: pIC50

[
  {
    "compound": "COc1cccc(CN(C)C(=O)C(CCSC)NS(=O)(=O)c2ccc3c(c2)OCCO3)c1OC (stereo not given)",
    "recordedNumber": 5.47
  },
  {
    "compound": "COC1(OC)C=CC(=O)C=C1NC(=O)c1ccccc1OC(C)=O",
    "recordedNumber": 5.39
  },
  {
    "compound": "C[C@H]1CCCC(=O)CCC/C=C/c2cc(O)cc(O)c2C(=O)O1",
    "recordedNumber": 4.85
  },
  {
    "compound": "Cc1cccc(NC(=O)c2nc(S(=O)(=O)Cc3ccccc3)ncc2Cl)c1",
    "recordedNumber": 5.60
  },
  {
    "compound": "Cc1cccc(NC(=O)Nc2ccc(C#N)cc2)n1",
    "recordedNumber": 5.75
  },
  {
    "compound": "CS(=O)(=O)Nc1cccc(-c2cc(NC=O)c3ncc(-c4ccc(F)cc4)n3c2)c1",
    "recordedNumber": 5.62
  },
  {
    "compound": "COc1ccc(-n2nnnc2C(CCSC)N2CCC(n3c(=O)[nH]c4ccccc43)CC2)cc1 (stereo not given)",
    "recordedNumber": 5.19
  },
  {
    "compound": "O=c1cc(-c2ccccc2Cl)oc2cc(O)cc(O)c12",
    "recordedNumber": 5.27
  },
  {
    "compound": "COc1ccc(C(c2nnnn2-c2ccc(OC)cc2)N2CCC(n3c(=O)[nH]c4ccccc43)CC2)cc1 (stereo not given)",
    "recordedNumber": 5.24
  },
  {
    "compound": "C=CC[C@@H](CC(=O)N(CCO)Cc1ccccc1)C(=O)NC[C@H](OC(=O)[C@@H](CC=C)Cc1ccc(F)cc1)c1ccccc1",
    "recordedNumber": 5.39
  }
]

* * *

- protocolDescription: NFkB reporter suppression in cystic fibrosis bronchial cells – cell-based, uHTS hits, panel, cytotoxicity readout, dose response (AID 624344)
- testConditions: CF bronchial epithelial cells, PAF-induced NFkB reporter inhibition; with PAF, mean of runs
Calls of active or inactive are those of the source. No rule for the calls is given here.
Classes used: active, inactive

[
  {
    "compound": "O=C(NCCCSc1ccccc1)c1cc(Cl)ccc1O",
    "category": "active"
  },
  {
    "compound": "CCOc1ccc(-n2c(C)c(C(C)=O)c3cc(OC(C)=O)ccc32)cc1",
    "category": "active"
  },
  {
    "compound": "O=C(Nc1ccccc1)Nc1ncc([N+](=O)[O-])s1",
    "category": "active"
  },
  {
    "compound": "Nc1ncnc(Sc2ccc(Cl)cc2)c1[N+](=O)[O-]",
    "category": "active"
  },
  {
    "compound": "Cc1nnc(SCC(=O)N2CCC(c3noc4ccc(F)cc34)CC2)s1",
    "category": "active"
  },
  {
    "compound": "COc1ccccc1[C@]1(C)ON(c2ccccc2C(F)(F)F)C1=O",
    "category": "active"
  },
  {
    "compound": "CC1CCN(CC(CS(=O)(=O)c2ccc([N+](=O)[O-])cc2)N2CCC(C)CC2)CC1 (stereo unspecified)",
    "category": "active"
  },
  {
    "compound": "C[C@@H]1C[C@@H]([C@H](O)CC2CC(=O)NC(=O)C2)C(=O)[C@@H](C)C1",
    "category": "active"
  },
  {
    "compound": "C#CCN(C[C@@H]1[C@@H](OC(=O)NC2CC2)[C@@H](OC(=O)NC2CC2)Cn2c(=O)ccc(=O)n21)S(=O)(=O)c1ccc(C)cc1",
    "category": "active"
  },
  {
    "compound": "O=c1[nH]c(C2CCN(S(=O)(=O)c3ccc4c(c3)OCCO4)CC2)nc2c1nnn2Cc1c(F)cccc1Cl",
    "category": "active"
  },
  {
    "compound": "Brc1cccc(CSc2nnc(-c3ccncc3)o2)c1",
    "category": "active"
  },
  {
    "compound": "Cc1ccc(S(=O)(=O)N2[C@@H](c3ccc(C(C)(C)C)cc3)C(C(=O)O)=CC[C@H]2c2ccc(C(C)C)cc2)cc1",
    "category": "active"
  },
  {
    "compound": "O=c1[nH]nc(Sc2ncnc3sccc23)n1CCc1ccccc1",
    "category": "active"
  },
  {
    "compound": "Cc1ccc(Nc2nc3nonc3[nH]c2=O)cc1Cl",
    "category": "active"
  },
  {
    "compound": "O=C1C=C(NC2=CC3OC(c4ccccc4)OCC3OC2=O)CCC1 (stereo unspecified)",
    "category": "active"
  },
  {
    "compound": "Cc1cccc(C(=O)N2[C@@H](C(C)C)COc3cc(Br)ccc3S2(=O)=O)c1",
    "category": "active"
  },
  {
    "compound": "COc1ccc(CN(CCC(c2ccc(F)cc2)C2CCOC(C)(C)C2)C(=O)c2ccco2)cc1 (stereo unspecified)",
    "category": "active"
  },
  {
    "compound": "CCN1CCN(Cc2ccc(NC(=O)c3ccc(C)c(NC(=O)c4cc(-c5ccc(Br)cc5)n[nH]4)c3)cc2C(F)(F)F)CC1",
    "category": "active"
  },
  {
    "compound": "Cc1nnc(NC(=O)Nc2ccc(Cl)c(Cl)c2)s1",
    "category": "active"
  },
  {
    "compound": "CCCC1/C(=N/O)CC(c2ccccc2)NC1c1ccccc1 (stereo unspecified)",
    "category": "active"
  },
  {
    "compound": "COc1cc(-c2cnc3c(NC=O)cc(-c4ccc(C)cc4)cn23)cc(OC)c1OC",
    "category": "inactive"
  }
]

* * *

- protocolDescription: NFkB reporter suppression in cystic fibrosis bronchial cells – cell-based, uHTS hits, panel, cytotoxicity readout, dose response (AID 624344)
- testConditions: CF bronchial epithelial cells, PAF-induced NFkB reporter inhibition; with PAF, mean of runs
pIC50: −log10 of the molar value.
Each entry below lists one item and its recorded pIC50 value.
measuredMetric: pIC50

[
  {
    "structureSmilesString": "COc1ccc(-c2cn[nH]c2-c2ccc(OCc3ccccc3F)cc2O)cc1OC",
    "measuredMetric": "pIC50",
    "recordedNumber": 5.45
  },
  {
    "structureSmilesString": "C=CCN1c2ccccc2Sc2cnccc21",
    "measuredMetric": "pIC50",
    "recordedNumber": 5.59
  },
  {
    "structureSmilesString": "Cc1ccc(NC(=O)Nc2cccc([N+](=O)[O-])c2)cc1F",
    "measuredMetric": "pIC50",
    "recordedNumber": 5.21
  },
  {
    "structureSmilesString": "O=C(/C=C/c1cccs1)Nc1cccc(NC(=O)/C=C/c2cccs2)n1",
    "measuredMetric": "pIC50",
    "recordedNumber": 5.22
  },
  {
    "structureSmilesString": "COc1ccc(CN(C)C(=O)c2cc(-c3ccc(C)cc3C)nc3ccccc23)c(OC)c1OC",
    "measuredMetric": "pIC50",
    "recordedNumber": 5.19
  },
  {
    "structureSmilesString": "NC(=O)c1sc2nccc(Nc3ccccc3)c2c1N",
    "measuredMetric": "pIC50",
    "recordedNumber": 6.43
  },
  {
    "structureSmilesString": "COc1ccc(-c2nc(NC(=O)c3ccc(OCC(=O)Nc4ccc(F)cc4)c(OC)c3)sc2C)cc1",
    "measuredMetric": "pIC50",
    "recordedNumber": 5.33
  },
  {
    "structureSmilesString": "CC(=O)Oc1c(Br)cc(N(C(C)=O)S(=O)(=O)c2ccccc2)c2ccccc12",
    "measuredMetric": "pIC50",
    "recordedNumber": 5.14
  },
  {
    "structureSmilesString": "Cn1c(N2CCN(C(c3ccccc3)c3ccccc3)CC2)nc2c1c(=O)[nH]c(=O)n2C",
    "measuredMetric": "pIC50",
    "recordedNumber": 5.43
  },
  {
    "structureSmilesString": "C=C1C(=O)O[C@@H]2[C@H]1CC[C@H](C)[C@]1(O)CCC(=O)[C@@]21C",
    "measuredMetric": "pIC50",
    "recordedNumber": 5.63
  }
]

* * *

- protocolDescription: NFkB reporter suppression in cystic fibrosis bronchial cells – cell-based, uHTS hits, panel, cytotoxicity readout, dose response (AID 624344)
- testConditions: CF bronchial epithelial cells, PAF-induced NFkB reporter inhibition; with PAF, mean of runs
Calls of active or inactive are those of the source. The rule behind the calls is not given here.
Outcome codes: label 1 (active), label 0 (inactive)

[
  {
    "molecule": "COc1ccc(-n2nc(C(=O)NCC(=O)Nc3cc(OC)c(OC)c(OC)c3)c3ccccc3c2=O)cc1Cl",
    "category": "label 1"
  },
  {
    "molecule": "C/C=C/COC(=O)c1[nH]c2c(c1C)C(=O)CC(c1ccco1)C2 (stereo unspecified)",
    "category": "label 0"
  },
  {
    "molecule": "c1cnc2ccc(-n3ccnc3)cc2c1",
    "category": "label 1"
  },
  {
    "molecule": "Cc1ccc(CNc2ncnc(N)c2[N+](=O)[O-])cc1",
    "category": "label 1"
  },
  {
    "molecule": "CCOC(=O)c1sc(NC(=O)c2cccc(S(=O)(=O)N3CCc4ccccc43)c2)c(C#N)c1C",
    "category": "label 1"
  },
  {
    "molecule": "COc1ccc(-c2ccccc2[C@H]2[C@@H]3C=CC[C@@H](C)[C@@H]3C(=O)N2Cc2ccccc2)cc1",
    "category": "label 1"
  },
  {
    "molecule": "CC(C)OC(=O)c1cccc(C(=O)Nc2cccc(NC(=O)c3cccc(C(=O)OC(C)C)n3)n2)n1",
    "category": "label 1"
  },
  {
    "molecule": "CCC(Oc1ccccc1)C(=O)Nc1ncc([N+](=O)[O-])s1 (stereo unspecified)",
    "category": "label 1"
  },
  {
    "molecule": "COc1ccc(-c2nc(N3CCOCC3)nc3n[nH]c(N)c23)cc1",
    "category": "label 1"
  },
  {
    "molecule": "COCc1cc(S(=O)c2ccc(Cl)cc2)nc(C)n1 (stereo unspecified)",
    "category": "label 1"
  },
  {
    "molecule": "Cc1ccc2c(c1)C(=O)C(=O)N2Cc1ccc(C(F)(F)F)cc1",
    "category": "label 0"
  },
  {
    "molecule": "CS(=O)(=O)c1ncc(Cl)c(C(=O)Nc2ccc(OC(F)F)cc2)n1",
    "category": "label 1"
  },
  {
    "molecule": "CCOc1ccc(C(C(=O)NC2CCCC2)N(C(=O)c2snc(C(N)=O)c2N)c2cccc(O)c2)cc1 (stereo unspecified)",
    "category": "label 1"
  },
  {
    "molecule": "COc1ccc(Oc2cc(NC(=O)c3nn(C)cc3[N+](=O)[O-])cc([N+](=O)[O-])c2)cc1",
    "category": "label 1"
  },
  {
    "molecule": "CC(=O)Oc1ccccc1C(=O)Oc1ccc(/C=N/n2cnnc2)cc1",
    "category": "label 0"
  },
  {
    "molecule": "Cc1ccc(S(=O)(=O)Nc2ccc3cc([N+](=O)[O-])ccc3c2[N+](=O)[O-])cc1",
    "category": "label 1"
  },
  {
    "molecule": "O=C(Nc1ccncc1)c1c(Cl)cccc1Cl",
    "category": "label 1"
  },
  {
    "molecule": "Cc1cccc(CS(=O)(=O)c2ncc(Cl)c(C(=O)NCc3ccccc3)n2)c1",
    "category": "label 1"
  },
  {
    "molecule": "COc1ccc2[nH]c3c(c2c1)CCNC3=O",
    "category": "label 1"
  },
  {
    "molecule": "COc1cccc(N2CCN(c3c(C#N)c(C(F)(F)F)nn3C)CC2)c1",
    "category": "label 1"
  },
  {
    "molecule": "CC(=O)Nc1ccc(NC(=O)c2nc(S(=O)(=O)Cc3cccc(C)c3)ncc2Cl)cc1",
    "category": "label 1"
  }
]
